Consider the following compounds and their measured IC50 readings.
Test system: HeLa
Test: Cytotoxicity against human HeLa cells assessed as reduction in cell viability incubated for 48 hrs by MTT assay
Type: functional, cell-based

1. C/C=C(/C)C(=O)O[C@H]1[C@@H]2[C@H](C)C(=O)O[C@@H]2C[C@@H](C)[C@@H]2C=CC(=O)[C@]21C: 9.2 µM
2. C/C=C(/C)C(=O)O[C@H]1[C@@H]2[C@H](C)C(=O)O[C@@H]2C[C@@H](C)[C@@H]2CCC(=O)[C@]21C: > 10 µM

The recorded IC50 with HeLa for `C/C=C(/C)C(=O)O[C@H]1[C@@H]2[C@H](C)C(=O)O[C@@H]2C[C@@H](C)[C@@H]2[C@@H](OCC)CC(=O)[C@]21C` was > 10 µM
